- Tested on: H69/P
- ASSAY DETAILS: MTT assay, 7-day exposure: sensitivity of parent cells to chemotherapeutic agents with or without MDR inhibitor (Example 1)
- Type: cell-based, human
- SETTINGS: H69/P; with CsA 5 µg/ml; value in parenthesis
# fold sensitivity compared with the chemotherapeutic agent without the MDR inhibitor, CsA annotations

The following compounds have reported results that may help.
{"COMPOUND": "COc1cc([C@@H]2c3cc4c(cc3[C@@H](O[C@@H]3O[C@@H]5CO[C@@H](C)O[C@H]5[C@H](O)[C@H]3O)[C@H]3COC(=O)[C@H]23)OCO4)cc(OC)c1O [Etoposide]", "REPORTED": "0.8 fold"}
{"COMPOUND": "CN(Cc1cnc2nc(N)nc(N)c2n1)c1ccc(C(=O)N[C@@H](CCC(=O)O)C(=O)O)cc1 [Methotrexate]", "REPORTED": "1.5 fold"}
{"COMPOUND": "CC[C@]1(O)C[C@@H]2CN(CCc3c([nH]c4ccccc34)[C@@](C(=O)OC)(c3cc4c(cc3OC)N(C)[C@H]3[C@@](O)(C(=O)OC)[C@H](OC(C)=O)[C@]5(CC)C=CCN6CC[C@]43[C@@H]65)C2)C1", "REPORTED": "1.4 fold"}

// recorded fold sensitivity compared with the chemotherapeutic agent without the MDR inhibitor, CsA for `COc1cccc2c1C(=O)c1c(O)c3c(c(O)c1C2=O)C[C@@](O)(C(=O)CO)C[C@@H]3O[C@H]1C[C@H](N)[C@H](O)[C@H](C)O1` : 1.0 fold

// recorded fold sensitivity compared with the chemotherapeutic agent without the MDR inhibitor, CsA for `COc1cccc2c1C(=O)c1c(O)c3c(c(O)c1C2=O)C[C@@](O)(C(C)=O)C[C@@H]3O[C@H]1C[C@H](N)[C@H](O)[C@H](C)O1` : 1.0 fold

// recorded fold sensitivity compared with the chemotherapeutic agent without the MDR inhibitor, CsA for O=P1(N(CCCl)CCCl)NCCCO1 (stereo not drawn) [Cyclophosphamide] : 1.1 fold
